system: Plasmodium berghei; assay: Luciferase/luciferin-expressing antifolate-resistant parasites were used to infect a culture of HepG2 cells that were pre-incubated with compounds. Infected hepatocytes emit light due to the luciferase reaction. Assay results are presented as the percent inhibition of light emission compared to control. […]; type: functional; conditions: sporozoite, HEPG2TOX_HILL_SLOPE 1.4, HEPG2TOX_R_SQUARED 0.615, PBLUC_HILL_SLOPE 3.49, PBLUC_R_SQUARED 0.793, read-out: LUCIFERASE INFECTION ASSAY - IC50
MEASUREMENT_NAME: pIC50
Note on pIC50: it is the negative log10 of concentration, concentration in mol/L.

Quick one: pIC50 for Oc1c(C(Nc2nccs2)c2cccnc2)ccc2cccnc12 (stereo unspecified) ?
5.70

###

tested on: Plasmodium berghei; assay: Luciferase/luciferin-expressing antifolate-resistant parasites were used to infect a culture of HepG2 cells that were pre-incubated with compounds. Infected hepatocytes emit light due to the luciferase reaction. Assay results are presented as the percent inhibition of light emission compared to control. […]; type: functional; conditions: sporozoite, HEPG2TOX_HILL_SLOPE 2.7, HEPG2TOX_R_SQUARED 0.839, PBLUC_HILL_SLOPE 8.17, PBLUC_R_SQUARED 0.802, read-out: LUCIFERASE INFECTION ASSAY - IC50
MEASUREMENT_NAME: pIC50
# pIC50 = -log10(concentration in molar units)

Please report the recorded pIC50 for Cc1nc(-c2ccc(C(C)Nc3cnn(-c4ccccc4)c(=O)c3Cl)cc2)cs1 (stereo unspecified) .
5.41

###

The entries below come with measured IC90 values attached.
test system: Plasmodium berghei; experiment: Luciferase/luciferin-expressing antifolate-resistant parasites were used to infect a culture of HepG2 cells that were pre-incubated with compounds. Infected hepatocytes emit light due to the luciferase reaction. Assay results are presented as the percent inhibition of light emission compared to control. […]; format: functional; settings: sporozoite, read-out: LUCIFERASE INFECTION ASSAY - IC90

- COMPOUND: "Oc1c(C(c2ccc(Cl)cc2Cl)N2CCOCC2)ccc2cccnc12 (stereo not given)"
  EXPERIMENTAL_SYSTEM: "Plasmodium berghei"
  MEASUREMENT_NAME: "IC90"
  ENDPOINT_RESULT: "8.77 µM"
- COMPOUND: "Cc1ccc2nc(Cn3cc(C(F)(F)F)cc(Cl)c3=O)cn2c1"
  EXPERIMENTAL_SYSTEM: "Plasmodium berghei"
  MEASUREMENT_NAME: "IC90"
  ENDPOINT_RESULT: "> 10 µM"

What value of IC90 has been reported for the following compound? Cc1cc(OCCN(C)C)cc2c1C1CCC3(C)C(=O)CCC3C1C=C2 (stereo not given)
> 9.34 µM

State the recorded IC90 for this entry: Cc1cc(-c2ccc(Cl)cc2)nc2c1c(C)nn2CCO
> 10 µM

Reported IC90, compound Cc1ccc([N+](=O)[O-])cc1S(=O)(=O)Nc1ccccc1C(=O)OCC(=O)NCCC1=CCCCC1 : ____
> 10 µM

###

tested on: Plasmodium berghei; assay: Luciferase/luciferin-expressing antifolate-resistant parasites were used to infect a culture of HepG2 cells that were pre-incubated with compounds. Infected hepatocytes emit light due to the luciferase reaction. Assay results are presented as the percent inhibition of light emission compared to control. […]; format: functional; conditions: sporozoite, PBLUC_HILL_SLOPE 7.84, PBLUC_R_SQUARED 0.586, read-out: LUCIFERASE INFECTION ASSAY - IC50
MEASUREMENT_NAME: pIC50
Reminder that pIC50 is minus the log10 of a molar concentration.

Fill blank: measured pIC50 of the compound Cc1sc2nc(-c3cccnc3)nc(N(C)Cc3cccnc3)c2c1C is ____.
5.14

###

Overview of reported IC90 across a group of compounds:
test system: Plasmodium berghei; experiment: Luciferase/luciferin-expressing antifolate-resistant parasites were used to infect a culture of HepG2 cells that were pre-incubated with compounds. Infected hepatocytes emit light due to the luciferase reaction. Assay results are presented as the percent inhibition of light emission compared to control. […]; assay type: functional; details: sporozoite, read-out: LUCIFERASE INFECTION ASSAY - IC90

# count of solved cases: 4
- COMPOUND: "CCOC(=O)c1sc(S(C)(=O)=O)c2c1CC(C)(C)CC2=O"
  IC90: "> 9.99 µM"
- COMPOUND: "O=C(Nc1ccc(N2CCCC2)cn1)c1cc(Cl)ccn1"
  IC90: "2.06 µM"
- COMPOUND: "CN(C)C(=O)C1CCCN1c1ccc(C(=O)c2ccccc2)cc1[N+](=O)[O-] (stereo unspecified)"
  IC90: "> 10 µM"
- COMPOUND: "CC(C)n1c(Sc2ncc([N+](=O)[O-])s2)nc2cc(Cl)ccc21"
  IC90: "8.83 µM"

For the compound shown here, Cn1nc(C(C)(C)C)cc1NC(=O)Cc1ccc(-c2ccccc2)cc1 , give the reported IC90.
> 10 µM

###

test system: Plasmodium berghei; test: Luciferase/luciferin-expressing antifolate-resistant parasites were used to infect a culture of HepG2 cells that were pre-incubated with compounds. Infected hepatocytes emit light due to the luciferase reaction. Assay results are presented as the percent inhibition of light emission compared to control. […]; format: functional; conditions: sporozoite, HEPG2TOX_HILL_SLOPE 6.25, HEPG2TOX_R_SQUARED 0.845, PBLUC_HILL_SLOPE 2.64, PBLUC_R_SQUARED 0.759, read-out: LUCIFERASE INFECTION ASSAY - IC50
MEASUREMENT_NAME: pIC50
Convention used: pIC50 is expressed as -log10 of the molar concentration.

Entry O=C1N/C(=N\C2CCCC2)S/C1=C\c1ccc2c(c1)OCCO2 , system Plasmodium berghei: what pIC50 was measured?
5.47

###

system: Plasmodium berghei; assay: Luciferase/luciferin-expressing antifolate-resistant parasites were used to infect a culture of HepG2 cells that were pre-incubated with compounds. Infected hepatocytes emit light due to the luciferase reaction. Assay results are presented as the percent inhibition of light emission compared to control. […]; assay type: functional; details: sporozoite, PBLUC_HILL_SLOPE 0.945, PBLUC_R_SQUARED 0.824, read-out: LUCIFERASE INFECTION ASSAY - IC50
MEASUREMENT_NAME: IC50 (nM)
Write down the numeric answer in nM and omit the unit.

Please provide the recorded IC50 for Cc1ccccc1-n1nnc(C(=O)Nc2cccc(Br)c2)c1N , tested on Plasmodium berghei.
414

###

tested on: Plasmodium berghei; assay: Luciferase/luciferin-expressing antifolate-resistant parasites were used to infect a culture of HepG2 cells that were pre-incubated with compounds. Infected hepatocytes emit light due to the luciferase reaction. Assay results are presented as the percent inhibition of light emission compared to control. […]; type: functional; conditions: sporozoite, HEPG2TOX_HILL_SLOPE 2.67, HEPG2TOX_R_SQUARED 0.733, PBLUC_HILL_SLOPE 2.15, PBLUC_R_SQUARED 0.208, read-out: LUCIFERASE INFECTION ASSAY - IC50
MEASUREMENT_NAME: IC50 (nM)
Use nM as the unit, but write only the number.

// returns reported IC50 for input CC(=O)OC1CCC2(C)C3CCC4(C)C(C5=CC(=O)OC5)CCC4(O)C3CCC2(O)C1 (stereo unspecified)
3000

###

tested on: Plasmodium berghei; assay: Luciferase/luciferin-expressing antifolate-resistant parasites were used to infect a culture of HepG2 cells that were pre-incubated with compounds. Infected hepatocytes emit light due to the luciferase reaction. Assay results are presented as the percent inhibition of light emission compared to control. […]; type: functional; conditions: sporozoite, FFLUC_HILL_SLOPE 12.7, FFLUC_R_SQUARED 0.208, HEPG2TOX_HILL_SLOPE 4.53, HEPG2TOX_R_SQUARED 0.902, PBLUC_HILL_SLOPE 7.46, PBLUC_R_SQUARED 0.34, read-out: LUCIFERASE INFECTION ASSAY - IC50
MEASUREMENT_NAME: IC50 (nM)
# output: bare number, implied unit nM

Enter reported IC50 observed with Plasmodium berghei for O=c1c2ccccc2c(=O)c2oc3cc4oc5c(=O)c6ccccc6c(=O)c5[nH]c4cc3[nH]c12
2980

###

system: Plasmodium berghei; assay: Luciferase/luciferin-expressing antifolate-resistant parasites were used to infect a culture of HepG2 cells that were pre-incubated with compounds. Infected hepatocytes emit light due to the luciferase reaction. Assay results are presented as the percent inhibition of light emission compared to control. […]; type: functional; conditions: sporozoite, FFLUC_HILL_SLOPE 1.17, FFLUC_R_SQUARED 0.844, PBLUC_HILL_SLOPE 1.67, PBLUC_R_SQUARED 0.404, read-out: LUCIFERASE INFECTION ASSAY - IC50
MEASUREMENT_NAME: IC50 (µM)
Numbers only; they are read as µM.

IC50 lookup needed for Cc1cc(C(=O)COC(=O)c2ccccc2N/C=C/C(=O)C(F)(F)F)c(C)n1CC1CCCO1 (stereo unspecified) , thanks.
3.35

Every entry's value here was drawn from ChEMBL document CHEMBL4483862.
